Origin of the recorded values: patent US20240400689A1

target-desc: T1, human CD276 protein (human, UniProt Q5ZPR3 29-534)
T1 construct: whole, on cells; for SKOV3 and the other cancer lines the protein is the cells' own; also called B7-H3; B7H3
T1 sequence (looked up): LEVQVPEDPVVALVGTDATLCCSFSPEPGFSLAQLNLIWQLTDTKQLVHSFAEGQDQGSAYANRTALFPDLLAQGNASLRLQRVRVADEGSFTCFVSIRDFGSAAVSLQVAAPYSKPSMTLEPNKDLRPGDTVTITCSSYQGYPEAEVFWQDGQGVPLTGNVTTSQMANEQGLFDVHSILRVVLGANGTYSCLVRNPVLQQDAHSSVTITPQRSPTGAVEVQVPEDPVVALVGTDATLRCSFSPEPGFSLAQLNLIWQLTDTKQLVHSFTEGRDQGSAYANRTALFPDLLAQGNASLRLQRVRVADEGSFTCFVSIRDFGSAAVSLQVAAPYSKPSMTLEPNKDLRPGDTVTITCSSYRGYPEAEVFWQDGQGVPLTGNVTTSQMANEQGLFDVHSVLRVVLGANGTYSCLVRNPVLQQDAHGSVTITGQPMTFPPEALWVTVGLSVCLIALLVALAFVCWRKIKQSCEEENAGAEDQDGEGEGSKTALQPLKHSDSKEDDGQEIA
method: FACS on CHO-S-hCD276 cells
Entries and their FACS MFI
parameter: FACS MFI

| binder | result |
| --- | --- |
| 27-E7-D8-C7 (antibody, V domains shown, mouse monoclonal antibody (hybridoma)) VH: EVQLQESGPELVRPGVSVKISCKGSGYTFTDYAMHWVKQSHAKSLEWIGVINTYSDNTNYNRKFKGKATMTVDKSSSTAYMELARLTSEDSAIYYCARGLLLRSQLGVYFDYWGQGTTLTVSS VL: QIVLSQSPAILSASPGEKVTMTCRASSSVSYMHWYQQKPGSSPKPWIYATSNLASGVPARFSGSGSGTSYSLTISRVEAEDAATYYCQQWSSNPWTFGGGTKLEIK | 94700 |
| 22-E11-C3-F2 (antibody, V domains shown, mouse monoclonal antibody (hybridoma)) VH: QIQLVQSGPELKRPGETVKISCKASGYSFTNYGMNWVKQAPGKGLKWMGWINPYTGEPTYADDFKGRFAMSLETSASAAYLQINNLKNEDMATYFCGRDDGYHYTMNYWGQGTSVTVSS VL: DVVMTQPPLSLPVSLGDQASISCRSSQSLIHSNGDTYLHWYLQKPGQSPKLLIYKVSIRFSGVPDRFSGSGSGTDFTLKISRVEAEDLGVYFCSQSTYVPWTFGGGTKLEIK | 74300 |
| 15-C8-B5-G7 (antibody, V domains shown, mouse monoclonal antibody (hybridoma)) VH: QVQLQQPGAELVKPGASVKLSCKASDYTFTSHWMHWVKQRPGQGLEWIGMIHPNSGTTHYNENFKNKATLTVDNSSSTAYMQLSSLTSEDSAVYYCAWGSSNSYFYAMAYWGQGTSVTVSS VL: QAVVTQESALTTSPGETVTLTCRSSTGAVTTSNYANWVQEKPAHLFTGLIGGTNNRAPGVPARFSGSLIGDKAALTITGAQTEDEAIYFCALWFSNHLVFGGGTKLTVL | 36600 |
